condition description: 303.15 K; 2000 kPa; Liquid; vibrating tube
Entries annotated with measured mass density
Number in kg/m3, nothing else.

CCCCn1cc[n+](C)c1.F[B-](F)(F)F [1-butyl-3-methylimidazolium tetrafluoroborate] : 1198.98
CCCCCCCC[n+]1ccn(C)c1.F[B-](F)(F)F [1-methyl-3-octylimidazolium tetrafluoroborate] : 1101.88
CCCCCCn1cc[n+](C)c1.F[B-](F)(F)F [1-hexyl-3-methylimidazolium tetrafluoroborate] : 1142.93

Okay, next one:
Asked: Determine from records and report mass density for CCn1cc[n+](C)c1.F[B-](F)(F)F [1-ethyl-3-methylimidazolium tetrafluoroborate]
Given back: 1282.57
